# Tested on: Rabbit Psoas myofibrils (skeletal myosin ATPase)
# Experiment: Myofibril ATPase assay, rabbit psoas (skeletal) myofibrils
# Type: biochemical
# Applied conditions: rabbit psoas myofibrils; Y75 value
Give measured Skeletal EC25 for each item. Keep answers brief.
Express your answer in µM, writing the number without its unit.

Quickly give me recorded Skeletal EC25 for C[C@H](NC(=O)[C@H](C)c1cc2nc(C#N)ccc2[nH]c1=O)c1ccc(F)cc1F (single isomer, unassigned) [compound 257]
100.00

Quickly give me recorded Skeletal EC25 for Cc1nccc2[nH]c(=O)c([C@H](C)C(=O)N[C@@H](C)c3ccc(F)cc3F)c(C)c12 (single isomer, unassigned) [compound 398]
0.23

Quickly give me recorded Skeletal EC25 for Cc1nccc2[nH]c(=O)c(CC(=O)N[C@@H](CO)c3ccc(C#N)cc3F)c(C)c12 (single isomer, unassigned) [compound 243]
0.17

Quickly give me recorded Skeletal EC25 for Cc1nccc2[nH]c(=O)c([C@H](C)C(=O)N[C@H](C)c3ncc(C#N)cc3F)c(C)c12 (single isomer, unassigned) [compound 192]
0.55

Quickly give me recorded Skeletal EC25 for Cc1c([C@@H](C)C(=O)N[C@@H](C)c2ccc(C#N)cc2F)c(=O)[nH]c2ccnc(C#N)c12 (single isomer, unassigned) [compound 173]
0.02

Quickly give me recorded Skeletal EC25 for Cc1c(CC(=O)N[C@H](CO)c2ncc(C#N)cc2F)c(=O)[nH]c2cnnc(C#N)c12 [compound 163]
12.34

Quickly give me recorded Skeletal EC25 for COc1nccc2[nH]c(=O)c([C@H](C)C(=O)N[C@@H](C)c3ccc(F)cc3F)c(C(F)(F)F)c12 (single isomer, unassigned) [compound 424]
4.49

Quickly give me recorded Skeletal EC25 for Cc1nccc2[nH]c(=O)c(CC(=O)N[C@@H](C)c3ccc(O)nc3)c(C)c12 (single isomer, unassigned) [compound 296]
100.00

Quickly give me recorded Skeletal EC25 for Cc1nccc2[nH]c(=O)c(CC(=O)N[C@H](C)c3ccc(C#N)cc3F)c(F)c12 [compound 148]
2.55

Quickly give me recorded Skeletal EC25 for Cc1ccc([C@H](CO)NC(=O)Cc2c(C)c3c(C)nccc3[nH]c2=O)cc1 (single isomer, unassigned) [compound 336]
100.00

Quickly give me recorded Skeletal EC25 for Cc1nccc2[nH]c(=O)c(CC(=O)N[C@H](C)c3ccc(O)cc3)c(C)c12 (single isomer, unassigned) [compound 328]
100.00

Quickly give me recorded Skeletal EC25 for Cc1c(CC(=O)N[C@@H](C)c2ccc(C#N)cn2)c(=O)[nH]c2ccncc12 [compound 467]
16.00

Quickly give me recorded Skeletal EC25 for Cc1c(CC(=O)N[C@H](CO)c2ncc(F)cc2F)c(=O)[nH]c2ccnc(C(F)(F)F)c12 [compound 263]
100.00

---

# Test target: Porcine ventricle myofibrils (ventricular myosin ATPase) (Sus scrofa, UniProt P79293)
# Construct: Myofibrils from porcine cardiac muscle was isolated from the left ventricle of Yucatan minipigs; tissue Exemplar Genetics; host or cells: left ventricle of Yucatan minipigs, myofibrils prepared in house
# Sequence (P79293 whole entry): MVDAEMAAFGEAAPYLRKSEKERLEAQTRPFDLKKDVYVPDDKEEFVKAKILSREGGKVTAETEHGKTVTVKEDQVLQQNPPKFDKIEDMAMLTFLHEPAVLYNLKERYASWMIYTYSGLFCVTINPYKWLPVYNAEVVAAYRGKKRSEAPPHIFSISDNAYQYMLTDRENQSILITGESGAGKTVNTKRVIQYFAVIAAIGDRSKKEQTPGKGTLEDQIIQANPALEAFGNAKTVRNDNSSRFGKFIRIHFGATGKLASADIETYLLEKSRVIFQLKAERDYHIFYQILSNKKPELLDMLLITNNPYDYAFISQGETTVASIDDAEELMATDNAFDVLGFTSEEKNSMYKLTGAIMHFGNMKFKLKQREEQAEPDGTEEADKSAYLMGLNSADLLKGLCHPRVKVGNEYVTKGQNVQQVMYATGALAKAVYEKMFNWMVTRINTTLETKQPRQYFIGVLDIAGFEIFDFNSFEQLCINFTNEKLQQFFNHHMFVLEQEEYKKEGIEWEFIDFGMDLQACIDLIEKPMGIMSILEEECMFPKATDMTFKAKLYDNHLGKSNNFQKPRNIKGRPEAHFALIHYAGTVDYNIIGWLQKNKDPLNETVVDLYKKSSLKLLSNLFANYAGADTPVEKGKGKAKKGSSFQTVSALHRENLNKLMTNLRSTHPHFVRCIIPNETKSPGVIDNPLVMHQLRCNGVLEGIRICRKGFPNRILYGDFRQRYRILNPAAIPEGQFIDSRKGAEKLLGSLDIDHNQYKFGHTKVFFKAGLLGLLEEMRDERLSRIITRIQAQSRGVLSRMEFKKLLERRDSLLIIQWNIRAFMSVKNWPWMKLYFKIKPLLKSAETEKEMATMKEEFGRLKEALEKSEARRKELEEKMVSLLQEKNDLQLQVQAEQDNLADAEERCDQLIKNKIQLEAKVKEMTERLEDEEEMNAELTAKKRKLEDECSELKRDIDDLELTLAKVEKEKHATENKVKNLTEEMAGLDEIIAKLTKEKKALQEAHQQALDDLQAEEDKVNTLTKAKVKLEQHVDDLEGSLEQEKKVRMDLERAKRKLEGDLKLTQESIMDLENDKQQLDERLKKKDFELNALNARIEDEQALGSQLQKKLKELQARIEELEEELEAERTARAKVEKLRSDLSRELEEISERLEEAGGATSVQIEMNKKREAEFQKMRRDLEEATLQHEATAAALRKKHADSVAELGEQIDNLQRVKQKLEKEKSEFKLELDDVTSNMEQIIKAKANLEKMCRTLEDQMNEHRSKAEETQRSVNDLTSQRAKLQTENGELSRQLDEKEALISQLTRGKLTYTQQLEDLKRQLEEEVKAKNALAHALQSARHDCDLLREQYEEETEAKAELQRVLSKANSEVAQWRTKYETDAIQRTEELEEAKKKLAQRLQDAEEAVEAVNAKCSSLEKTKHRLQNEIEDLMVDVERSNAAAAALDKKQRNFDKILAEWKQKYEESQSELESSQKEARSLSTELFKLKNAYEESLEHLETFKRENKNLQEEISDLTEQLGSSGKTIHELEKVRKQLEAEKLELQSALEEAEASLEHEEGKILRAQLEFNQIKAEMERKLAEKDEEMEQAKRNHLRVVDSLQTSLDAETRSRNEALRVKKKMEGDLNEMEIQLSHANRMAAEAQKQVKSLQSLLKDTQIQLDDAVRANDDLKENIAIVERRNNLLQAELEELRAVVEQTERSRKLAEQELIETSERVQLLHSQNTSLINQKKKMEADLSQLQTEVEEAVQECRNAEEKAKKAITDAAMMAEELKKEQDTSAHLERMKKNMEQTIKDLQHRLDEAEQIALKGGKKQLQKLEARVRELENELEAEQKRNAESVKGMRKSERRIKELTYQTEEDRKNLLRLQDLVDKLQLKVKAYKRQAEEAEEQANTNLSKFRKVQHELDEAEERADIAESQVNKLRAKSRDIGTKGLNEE
# Experiment: Myofibril ATPase assay, porcine ventricle myofibrils
# Format: biochemical, porcine (Yucatan minipigs)
# Applied conditions: Y75 value (no ‡ mark); porcine ventricle myofibrils
Give measured Ventricular EC25 for each item. Keep answers brief.
Express your answer in µM, writing the number without its unit.

Quickly give me recorded Ventricular EC25 for Cc1nc(C#N)ncc1[C@@H](C)NC(=O)Cc1c(C)c2c(F)c(F)ccc2[nH]c1=O [compound 1131]
0.89

Quickly give me recorded Ventricular EC25 for C[C@H](NC(=O)C(F)(F)c1cc2c(F)c(F)ccc2[nH]c1=O)c1cc(C#N)ccn1 (single isomer, unassigned) [compound 2558]
81.97

Quickly give me recorded Ventricular EC25 for C[C@H](NC(=O)Cc1c(C2CC2)c2c(F)c(F)ccc2[nH]c1=O)c1ccc(C#N)nn1 (single isomer, unassigned) [compound 2066]
7.88

Quickly give me recorded Ventricular EC25 for Cc1c(CC(=O)N[C@@H]2CCc3cc(C#N)cnc32)c(=O)[nH]c2ccc(F)cc12 [compound 1092]
2.41

Quickly give me recorded Ventricular EC25 for Cc1c(CC(=O)N[C@@H](C)c2ncc(C#N)cn2)c(=O)[nH]c2ccc(F)cc12 [compound 1071]
11.94

Quickly give me recorded Ventricular EC25 for Cc1c(F)ccc2[nH]c(=O)c(C(F)(F)C(=O)N[C@H](C)c3ncc(C#N)cn3)c(C#N)c12 (single isomer, unassigned) [Compound 2511]
2.64

Quickly give me recorded Ventricular EC25 for Cc1c(Cl)ccc2[nH]c(=O)c(CC(=O)N[C@@H](C)c3ncc(C#N)cc3F)c(C)c12 (single isomer, unassigned) [compound 2046]
0.10

---

# Tested on: Porcine atria myofibrils (atrial myosin ATPase)
# Experiment: Myofibril ATPase assay, porcine atria myofibrils
# Format: biochemical
# Applied conditions: Y75 value (no ‡ mark); porcine atria myofibrils
With a cut-off of 1000 nM, any Atrial EC25 strictly below it is called 1; any Atrial EC25 meeting it or above is called 0.

For Cc1c(CC(=O)N[C@@H]2CCc3cc(C#N)cnc32)c(=O)[nH]c2ccc(F)cc12 [compound 1092] , is the recorded Atrial EC25 below the cut-off of 1000 nM?
0

For Cc1c(CC(=O)N[C@H](C)c2ncc(C#N)cc2F)c(=O)[nH]c2ccc(F)c(Cl)c12 (single isomer, unassigned) [compound 2051] , is the recorded Atrial EC25 below the cut-off of 1000 nM?
1

For Cc1c([C@@H](C)C(=O)N[C@@H](C)c2ccc(F)cc2F)c(=O)[nH]c2ccc(F)c(F)c12 (single isomer, unassigned) [compound 108] , is the recorded Atrial EC25 below the cut-off of 1000 nM?
1

For Cc1c(C(F)(F)C(=O)N[C@H]2COc3cc(C#N)cc(F)c32)c(=O)[nH]c2ccc(F)cc12 (single isomer, unassigned) [compound 2554] , is the recorded Atrial EC25 below the cut-off of 1000 nM?
1

For N#Cc1cnc2c(c1)CC[C@H]2NC(=O)C1(c2cc3c(F)c(F)ccc3[nH]c2=O)CC1 (single isomer, unassigned) [compound 4823] , is the recorded Atrial EC25 below the cut-off of 1000 nM?
0

For Cc1c(F)ccc2[nH]c(=O)c(C(F)(F)C(=O)N[C@@H](C)c3ncc(C#N)cc3F)c(C#N)c12 (single isomer, unassigned) [compound 2520] , is the recorded Atrial EC25 below the cut-off of 1000 nM?
1

---

# Test system: Rabbit Psoas myofibrils (skeletal myosin ATPase)
# Experiment: Myofibril ATPase assay, rabbit psoas (skeletal) myofibrils
# Format: biochemical
# Applied conditions: rabbit psoas myofibrils; Y75 value
Give measured Skeletal EC25 for each item. Keep answers brief.
Express your answer in µM, writing the number without its unit.

Answer with Skeletal EC25 of C[C@H](NC(=O)Cc1cc2cnccc2[nH]c1=O)c1ccc(F)cc1F [compound 441] measured for Rabbit Psoas myofibrils (skeletal myosin ATPase).
1.88

Answer with Skeletal EC25 of Cc1nccc2[nH]c(=O)c(CC(=O)N[C@H](CO)c3ccncc3)c(C)c12 [compound 292] measured for Rabbit Psoas myofibrils (skeletal myosin ATPase).
100.00

Answer with Skeletal EC25 of Cc1nncc2[nH]c(=O)c(CC(=O)N[C@H](C)c3ccc(F)cc3F)cc12 [compound 499] measured for Rabbit Psoas myofibrils (skeletal myosin ATPase).
100

Answer with Skeletal EC25 of Cc1ccccc1[C@H](C)NC(=O)Cc1c(C)c2c(C)nccc2[nH]c1=O (single isomer, unassigned) [compound 327] measured for Rabbit Psoas myofibrils (skeletal myosin ATPase).
0.67

Answer with Skeletal EC25 of Cc1ncc(C#N)nc1C(C)NC(=O)Cc1c(C)c2c(C)nccc2[nH]c1=O (stereo not shown) [compound 461] measured for Rabbit Psoas myofibrils (skeletal myosin ATPase).
100.00

Answer with Skeletal EC25 of Cc1c(CC(=O)N[C@H](CO)c2ncccc2F)c(=O)[nH]c2ccnc(C#N)c12 (single isomer, unassigned) [compound 235] measured for Rabbit Psoas myofibrils (skeletal myosin ATPase).
100.00

Answer with Skeletal EC25 of Cc1c(CC(=O)N[C@@H](C)c2ccc(C#N)cn2)c(=O)[nH]c2ccc(C(F)(F)F)nc12 [compound 460] measured for Rabbit Psoas myofibrils (skeletal myosin ATPase).
100.00

---

# Test target: Porcine ventricle myofibrils (ventricular myosin ATPase) (Sus scrofa, UniProt P79293)
# Construct: Myofibrils from porcine cardiac muscle was isolated from the left ventricle of Yucatan minipigs; tissue Exemplar Genetics; host or cells: left ventricle of Yucatan minipigs, myofibrils prepared in house
# Experiment: Myofibril ATPase assay, porcine ventricle myofibrils
# Assay type: biochemical, porcine (Yucatan minipigs)
# Applied conditions: Y75 value (no ‡ mark); porcine ventricle myofibrils
Endpoint: Ventricular EC25 (µM)
Express your answer in µM, writing the number without its unit.

Answer with Ventricular EC25 of COc1ccc2[nH]c(=O)c(CC(=O)N[C@@H](C)c3ncc(F)cc3F)cc2c1C (single isomer, unassigned) measured for Porcine ventricle myofibrils (ventricular myosin ATPase) (Sus scrofa, UniProt P79293).
100.00

Answer with Ventricular EC25 of Cc1c(CC(=O)N[C@@H](C)c2ncc(C#N)cn2)c(=O)[nH]c2ccc(F)c(C3CC3)c12 (single isomer, unassigned) measured for Porcine ventricle myofibrils (ventricular myosin ATPase) (Sus scrofa, UniProt P79293).
3.02

Answer with Ventricular EC25 of C[C@@H](NC(=O)Cc1c(C2CC2)c2c(F)c(F)ccc2[nH]c1=O)c1ccc(C#N)nn1 (single isomer, unassigned) measured for Porcine ventricle myofibrils (ventricular myosin ATPase) (Sus scrofa, UniProt P79293).
100.00

Answer with Ventricular EC25 of Cc1c(C(C)C(=O)N[C@@H](C)c2ccc(F)cc2F)c(=O)[nH]c2ccc(F)cc12 (stereo partly drawn) measured for Porcine ventricle myofibrils (ventricular myosin ATPase) (Sus scrofa, UniProt P79293).
3.12

Answer with Ventricular EC25 of Cc1c(CC(=O)N[C@@H](C)c2ccc(C#N)nn2)c(=O)[nH]c2ccc(F)cc12 measured for Porcine ventricle myofibrils (ventricular myosin ATPase) (Sus scrofa, UniProt P79293).
10.61

Answer with Ventricular EC25 of Cc1c(CC(=O)N[C@@H](C)c2ncc(C#N)cc2F)c(=O)[nH]c2ccc(Cl)cc12 (single isomer, unassigned) measured for Porcine ventricle myofibrils (ventricular myosin ATPase) (Sus scrofa, UniProt P79293).
0.18
